Every entry's value here was drawn from patent EP3876933B1.

Test system: human neutrophils
experiment-notes: Superoxide anion (O2˙-) generation in fMLF/CB-activated human neutrophils (SOD-inhibitable ferricytochrome c reduction)
Assay type: cell-based
run-conditions: Neutrophil; FMLP/CB-induced human neutrophils; mean ± S.E.M. (n = 3-5); read-out: Superoxide Anion IC50
recorded-metric: IC50 (nM)

Inquiry: // query IC50 value for entry `Cn1nc(N)c2c(Nc3ccccc3O)nc3ccccc3c21`
Reply text: 730

Inquiry: For the compound `CC(=O)c1cccc(Nc2nc3ccccc3c3onc(N)c23)c1` , what IC50 is on record?
Reply text: 2880

I = Cn1nc(N)c2c(Nc3ccc(C(=O)O)cc3)nc3ccccc3c21
II = COc1cc(Nc2nc3ccccc3c3c2c(N)nn3C)cc(OC)c1OC
Inquiry: # compare IC50 for I vs II ; return the one with the smaller value Your answer should be the label of the entry you select.
Reply text: II

P = Cn1nc(N)c2c(Nc3ccc(F)cc3)nc3ccccc3c21
Q = Cn1nc(N)c2c(Nc3ccc(Cl)cc3)nc3ccccc3c21
Inquiry: Lab note: check whether P or Q has the lower measured IC50. Pick one and reply with its label.
Reply text: P

---

System: human neutrophils
experiment-notes: Elastase release in fMLF/CB-activated human neutrophils (Methoxysuccinyl-Ala-Ala-Pro-Val-p-nitroanilide substrate)
Assay type: cell-based
run-conditions: Neutrophil; FMLP/CB-induced human neutrophils; mean ± S.E.M. (n = 3-5); read-out: Elastase Release IC50
recorded-metric: IC50 (µM)

Examples with their reported IC50 follow.
Inquiry: Give the reported IC50 for Cn1nc(N)c2c(Nc3ccccc3O)nc3ccccc3c21 [Compound 11] (system: human neutrophils).
Reply text: 2.24

Inquiry: Notebook: pull reported IC50 for human neutrophils, entry COc1ccc(Nc2nc3ccccc3c3c2c(N)nn3C)cc1 [Compound 7]
Reply text: 3.77

Inquiry: Requested read-out IC50, target or system human neutrophils, entry COc1ccccc1Nc1nc2ccccc2c2c1c(N)nn2C [Compound 5]
Reply text: 4.65

Inquiry: Query the reported IC50 for human neutrophils; item: Cn1nc(N)c2c(Nc3cccc(O)c3)nc3ccccc3c21 [Compound 12]
Reply text: 4.62

a = Cn1nc(N)c2c(Nc3ccc(C(=O)O)cc3)nc3ccccc3c21 [Compound 15]
b = Nc1noc2c1c(Nc1ccc(C(F)(F)F)cc1)nc1ccccc12 [Compound 30]
Inquiry: Please compare: a and b . Report which one has the smaller IC50 value. Reply briefly: the label of your chosen item.
Reply text: a

---

System: human neutrophils
experiment-notes: Elastase release in fMLF/CB-activated human neutrophils (Methoxysuccinyl-Ala-Ala-Pro-Val-p-nitroanilide substrate)
Format: cell-based
run-conditions: Neutrophil; FMLP/CB-induced human neutrophils; mean ± S.E.M. (n = 3-5); read-out: Elastase Release IC50
recorded-metric: IC50 (µM)

Inquiry: Provide value of IC50 for this record tested with human neutrophils: `Cn1nc(N)c2c(Nc3ccc(F)cc3)nc3ccccc3c21`
Reply text: 5.5

1 = Cn1nc(N)c2c(Nc3ccc(O)cc3)nc3ccccc3c21
2 = Cc1ccc(Nc2nc3ccccc3c3onc(N)c23)cc1
Inquiry: API: POST /compare with 1 and 2 ; response names the item with higher IC50. Selection: enter the item's label.
Reply text: 2
(2: 7.24 µM, 1: 0.0321 µM)

---

Tested on: human neutrophils
experiment-notes: Elastase release in fMLF/CB-activated human neutrophils (Methoxysuccinyl-Ala-Ala-Pro-Val-p-nitroanilide substrate)
Type: cell-based
run-conditions: Neutrophil; FMLP/CB-induced human neutrophils; mean ± S.E.M. (n = 3-5); read-out: Elastase Release IC50
Entries and their measured IC50 follow.

Sample records with IC50:
Inquiry: Any idea what IC50 was measured for `CC(=O)c1cccc(Nc2nc3ccccc3c3onc(N)c23)c1` ?
Reply text: > 10 µM

Inquiry: IC50 lookup needed for `COc1cccc(Nc2nc3ccccc3c3onc(N)c23)c1` , thanks.
Reply text: > 10 µM

// moving on: another record for IC50
Inquiry: # input molecule: `Cn1nc(N)c2c(Nc3ccc(C(F)(F)F)cc3)nc3ccccc3c21` ; wanted: its IC50
Reply text: > 10 µM
